For each record, write down the corresponding apparent Kd (screen).
- subject-of-test: T1, TNFR1 (Homo sapiens, UniProt P19438)
- T1 chain: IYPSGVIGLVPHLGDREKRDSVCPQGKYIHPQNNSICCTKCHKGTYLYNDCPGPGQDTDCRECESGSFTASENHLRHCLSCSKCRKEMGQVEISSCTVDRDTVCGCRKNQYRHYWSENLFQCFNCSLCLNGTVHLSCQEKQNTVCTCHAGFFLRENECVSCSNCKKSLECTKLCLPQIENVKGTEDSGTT
- test-name: yeast display SC50
Give the value, in units of nM, as a plain number.

// query Give its apparent Kd (screen) value. Item: A69D (designed binder) MTLQELLREEALRRAEAEAFRYALELLAEKFPEQKEYLLDLAEEIESQIRSLSGVDVEDVRKFLDKEWDWVKELLAEHPAELAEVEAARAARLAELRAEVEAKVAA
// result 0.653

// query Give its apparent Kd (screen) value. Item: W70H (designed binder) MTLQELLREEALRRAEAEAFRYALELLAEKFPEQKEYLLDLAEEIESQIRSLSGVDVEDVRKFLDKEWAHVKELLAEHPAELAEVEAARAARLAELRAEVEAKVAA
// result 12.5

// query Give its apparent Kd (screen) value. Item: Y37V (designed binder) MTLQELLREEALRRAEAEAFRYALELLAEKFPEQKEVLLDLAEEIESQIRSLSGVDVEDVRKFLDKEWAWVKELLAEHPAELAEVEAARAARLAELRAEVEAKVAA
// result 24.4

// query Give its apparent Kd (screen) value. Item: R89Y (designed binder) MTLQELLREEALRRAEAEAFRYALELLAEKFPEQKEYLLDLAEEIESQIRSLSGVDVEDVRKFLDKEWAWVKELLAEHPAELAEVEAAYAARLAELRAEVEAKVAA
// result 0.539
